system: α1-acid glycoprotein (AGP); assay: Bound percentage by HPLC on AGP column, extrapolation to zero organic modifier; type: in vitro ADME, human; settings: extrapolation to zero percent EtOH
test-readout: Bound percentage (b%)
Numeric answer only, unit % assumed.

compound-smiles | Bound percentage (b%)
COCCCOc1ccnc(C[S@+]([O-])c2nc3ccccc3[nH]2)c1C | 98.17
COCCCOc1ccnc(C[S@@+]([O-])c2nc3ccccc3[nH]2)c1C | 96.69
Cc1c(OCC(F)(F)F)ccnc1C[S@@+]([O-])c1nc2ccccc2[nH]1 | 97.60

Please examine the following record next.
*Q* Note down Bound percentage (b%) recorded for Cc1c(OCC(F)(F)F)ccnc1C[S@+]([O-])c1nc2ccccc2[nH]1
*A* 96.92

###

target: human serum albumin (HSA) (Homo sapiens, UniProt P02768); test: Displacement chromatography on HSA column with warfarin and ibuprofen as competitors; format: binding; conditions: ibuprofen 0.01 mM, IPA:10 mM pH 7 phosphate buffer 1:99, 25 °C
Sequence (P02768 25-609): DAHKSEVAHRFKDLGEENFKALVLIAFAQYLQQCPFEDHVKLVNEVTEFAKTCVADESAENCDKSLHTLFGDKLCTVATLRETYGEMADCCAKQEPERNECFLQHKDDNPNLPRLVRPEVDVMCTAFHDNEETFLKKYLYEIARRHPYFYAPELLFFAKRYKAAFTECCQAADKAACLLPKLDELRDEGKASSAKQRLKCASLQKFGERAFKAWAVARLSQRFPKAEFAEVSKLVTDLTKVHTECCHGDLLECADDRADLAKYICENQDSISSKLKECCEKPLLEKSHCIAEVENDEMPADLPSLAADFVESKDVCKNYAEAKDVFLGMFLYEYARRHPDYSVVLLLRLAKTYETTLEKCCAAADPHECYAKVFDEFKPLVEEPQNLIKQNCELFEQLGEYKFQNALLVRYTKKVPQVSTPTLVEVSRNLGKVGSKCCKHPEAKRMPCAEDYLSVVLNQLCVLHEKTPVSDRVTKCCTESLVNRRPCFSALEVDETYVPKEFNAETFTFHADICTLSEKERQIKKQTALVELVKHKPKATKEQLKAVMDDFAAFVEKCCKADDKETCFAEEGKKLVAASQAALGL
Catalogue of molecules with associated k retention factor

Here are 3 molecules together with their reported answers.
molecule | measured-target | k retention factor
Cc1c(OCC(F)(F)F)ccnc1C[S@+]([O-])c1nc2ccccc2[nH]1 | human serum albumin (HSA) (Homo sapiens, UniProt P02768) | 9.81
Cc1c(OCC(F)(F)F)ccnc1C[S@@+]([O-])c1nc2ccccc2[nH]1 | human serum albumin (HSA) (Homo sapiens, UniProt P02768) | 13.98
COCCCOc1ccnc(C[S+]([O-])c2nc3ccccc3[nH]2)c1C (stereo not shown) | human serum albumin (HSA) (Homo sapiens, UniProt P02768) | 6.67

*Q* Report value: k retention factor, system: human serum albumin (HSA) (Homo sapiens, UniProt P02768), molecule: COc1ccc2[nH]c([S+]([O-])Cc3ncc(C)c(OC)c3C)nc2c1 (stereo not shown)
*A* 7.96
